B1: TRIM43 (parent)
chain: FCDMDKSLLCLLCSNSQEHGAHKH

variants of: B1; test: protein stability index of a GFP-peptide fusion (GPS, HEK-293T) (PSI 1-6); higher = more stable; conditions: c terminus: a fixed tail appended;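 further: lentivirally expressed fusions sorted by FACS into six bins by GFP to DsRed ratio, PSI derived from sequencing read proportions per bin multiplied by bin number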
endpointName: protein stability index

Query K6S yields protein stability index of 2.17

Query H19K yields protein stability index of 2.11

Query S14Y yields protein stability index of 1.82

Query L12V yields protein stability index of 1.93

Query H19Y yields protein stability index of 1.91

Query D5V yields protein stability index of 2.74

Query N15M yields protein stability index of 1.66

Query K6C yields protein stability index of 1.95

Query D3V yields protein stability index of 2.76

Query F1T yields protein stability index of 3.21

Query C10G yields protein stability index of 1.64

Query F1K yields protein stability index of 3.56

Query L12G yields protein stability index of 1.57

Query S7M yields protein stability index of 2.23

Query S7Y yields protein stability index of 2.1

Query L9V yields protein stability index of 2.16

Query H24S yields protein stability index of 1.58

Query H19N yields protein stability index of 1.75

Query G20K yields protein stability index of 1.93

Query L12Q yields protein stability index of 2.65

Query H22G yields protein stability index of 1.78

Query A21M yields protein stability index of 2.33

Query D5K yields protein stability index of 2.22

Query L8Y yields protein stability index of 2.03

Query C13I yields protein stability index of 2.04

Query C10Q yields protein stability index of 1.86

Query S7Q yields protein stability index of 2.54

Query C13D yields protein stability index of 1.99

Query D5H yields protein stability index of 3.33

Query M4E yields protein stability index of 2.58

Query C13K yields protein stability index of 2.15

Query Q17E yields protein stability index of 2.1

Query H24I yields protein stability index of 1.7

Query G20P yields protein stability index of 2.27

Query A21H yields protein stability index of 1.98

Query K23M yields protein stability index of 1.91

Query L11W yields protein stability index of 2.79

Query S16W yields protein stability index of 1.75

Query S16K yields protein stability index of 2.04

Query N15T yields protein stability index of 1.77

Query S7I yields protein stability index of 1.84

Query A21P yields protein stability index of 2.22

Query S7W yields protein stability index of 1.79

Query S7E yields protein stability index of 2.12

Query H19I yields protein stability index of 1.87

Query D5C yields protein stability index of 2.02
